Origin of the recorded values: paper PMC12040169

Assay Comment: in vitro
Set-up: Viability of infected HeLa host cells, resazurin conversion, bulk resorufin fluorescence relative to DMSO
Condition: human, hela cells; bulk resorufin, mean of 2
Below: a set of entries, each annotated with reported viability at 28.5 h, 10 µM.

The molecule "Cc1noc(NS(=O)(=O)c2ccc(NC(=O)/C=C/c3ccc(C(C)C)cc3)cc2)c1C" showed viability at 28.5 h, 10 µM equal to 106%

Summary for this molecule, Oc1ccccc1Nc1nc(NC2CCCC2)c2ccccc2n1 [CBK268402C] : viability at 28.5 h, 10 µM is 104%

// O=[N+]([O-])c1cccc(C(Nc2cccnc2)c2cc(Cl)c3cccnc3c2O)c1 (stereo not shown) : viability at 28.5 h, 10 µM value = 91.6%

The measured viability at 28.5 h, 10 µM associated with "CC(C)(C)CC(C)(C)NC(=S)Nc1ccc2nc(-c3ccccn3)c(-c3ccccn3)nc2c1" reads 98%

* * *

Assay Comment: in vitro
Condition: human, hela cells, % viability
We begin with a simple list: items and their reported viability at 28.5 h, 10 µM.
Quick note: unit goes after the number.

Consider the following illustrative entries.
>  <Compound>
CCc1ccc(CNC(=O)c2ccc3c(c2)NC(=O)C(N2CCOCC2)S3)cc1 (centres unmarked) [CBK071737]

>  <viability at 28.5 h, 10 µM>
93.2%

$$$$
>  <Compound>
CC(C)c1ccc(S(=O)(=O)NCc2c(F)ccc(Cl)c2F)cc1 [CBK043484]

>  <viability at 28.5 h, 10 µM>
88.4%

$$$$
>  <Compound>
CCCCn1c(CSc2ncccc2C(=O)O)nc2cc(S(=O)(=O)N3CCOCC3)ccc21 [CBK297558]

>  <viability at 28.5 h, 10 µM>
84.1%

$$$$

Note to self: viability at 28.5 h, 10 µM recorded for Cc1cccn2cc(C(=O)N(C)CCn3ccnc3C)nc12 [CBK281735] was 91.7%

// recorded viability at 28.5 h, 10 µM for Cc1cccc(C)c1OCCOCC(O)CN1CCN(C)CC1 (centres unmarked) [CBK278206C] : 90.4%

* * *

Assay Comment: in vitro
Condition: human, hela cells, % viability, bulk resorufin, single well
Result Type: viability at 28.5 h, 10 µM (%)
Give the quantity in %, number only.

Please review the following examples before continuing.
>  <Compound>
O=C1C(=CNCCc2c[nH]c3ccccc23)C(=O)N(c2ccccc2)C(=S)N1c1ccccc1

>  <viability at 28.5 h, 10 µM / %>
98.5

$$$$
>  <Compound>
O=C(O)COc1ccc(/C=C2\C(=O)NC(=O)N(c3ccc(OCc4ccccc4)cc3)C2=O)cc1

>  <viability at 28.5 h, 10 µM / %>
83.6

$$$$
>  <Compound>
N#Cc1cccc(-c2ccc3c(c2)COC2(CCN(C(=O)Cc4c[nH]c5ccccc45)CC2)O3)c1

>  <viability at 28.5 h, 10 µM / %>
99.1

$$$$
>  <Compound>
O=C(O)COc1c(Cl)cc(/C=C2\C(=O)NC(=S)N(c3ccc(F)cc3)C2=O)cc1Cl

>  <viability at 28.5 h, 10 µM / %>
107

$$$$
>  <Compound>
COc1ccc(CCNC(=O)c2cccc(-c3ccc4c(c3)COC3(CCNCC3)O4)c2)cc1OC

>  <viability at 28.5 h, 10 µM / %>
116

$$$$

So, "CS(=O)(=O)c1ccc(-c2ccc3c(c2)COC2(CCN(C(=O)CCCc4ccc(F)cc4)CC2)O3)cc1" ? Its viability at 28.5 h, 10 µM was 92.5

// "Cc1cc(C)cc(N2C(=O)NC(=O)/C(=C\c3ccccc3Br)C2=O)c1" : viability at 28.5 h, 10 µM value = 100

Summary for this compound, "c1cc2c(cc1-c1ccc3c(c1)COC1(CCNCC1)O3)CCO2" : viability at 28.5 h, 10 µM is 108

Entry COc1cc(C2OCCNC2C)c(OC)cc1C (stereo not shown) [CBK010347C] — recorded viability at 28.5 h, 10 µM = 90.7

# compound "COc1ccc2[nH]cc(CC(=O)Nc3cccc(-c4ccc5c(c4)COC4(CCNCC4)O5)c3)c2c1" ; its viability at 28.5 h, 10 µM = 78

Summary for this compound, "COC(=O)c1cccc2c3c(n(Cc4ccccc4)c12)CCCC3=O" : viability at 28.5 h, 10 µM is 94.7

viability at 28.5 h, 10 µM in this record for "COc1ccc2c(c1)COC1(CCN(C(=O)CC(C)(C)CC(=O)O)CC1)O2" : 90.3

Per the records, this compound ( "CCNC(=O)N1CCC2(CC1)OCc1cc(-c3ccc(Cl)cc3)ccc1O2" ) has viability at 28.5 h, 10 µM equal to 90.1

So, "O=C(Nc1ccc2c(c1)OC(F)(F)O2)c1nn(Cc2ccc(-c3csnn3)cc2)c2ccccc12" ? Its viability at 28.5 h, 10 µM was 86.8

For this compound ( "CCOc1ccc(N2C(=O)NC(=O)/C(=C\NCCc3c[nH]c4ccccc34)C2=O)cc1" ), measured viability at 28.5 h, 10 µM is 104

For reference, reported viability at 28.5 h, 10 µM for "CS(=O)(=O)c1ccc(-c2ccc3c(c2)COC2(CCN(C(=O)Cc4cccc(C(F)(F)F)c4)CC2)O3)cn1" stands at 114

get_value(item= CCOC(=O)C1(c2ccccc2)CCN(C(=O)N(CCN)CCC(C)c2ccccc2)CC1 (stereo not shown) [CBK002129C] , readout=viability at 28.5 h, 10 µM) returns 82.6

viability at 28.5 h, 10 µM reading for "CCOc1cc(C=C2C(=O)NC(=O)NC2=O)ccc1OS(=O)(=O)c1ccc([N+](=O)[O-])cc1" : 82.9

What the record says about CC(C)C(Nc1c([N+](=O)[O-])cc(C(F)(F)F)cc1[N+](=O)[O-])C(=O)O (stereo not shown) : viability at 28.5 h, 10 µM is 96.4

Entry "COc1ccc2c(c1)COC1(CCN(C(=O)Nc3cccs3)CC1)O2" — recorded viability at 28.5 h, 10 µM = 105

Recorded result, "Cc1cc2cc(NC(=O)CCC3C(=O)NC(=O)NC3=O)cc(Cl)c2o1" , viability at 28.5 h, 10 µM: 93

Looking up "COc1ccc(Cn2nc(C(=O)O)c3ccccc32)cc1OC" , I see its viability at 28.5 h, 10 µM listed as 93

Looking up "CC(C)(C)OC(=O)N1CCC2(CC1)OCc1cc(-c3cccc(OCC(=O)Nc4ccccc4)c3)ccc1O2" , I see its viability at 28.5 h, 10 µM listed as 99.6
